Listing: koff of selected binders
test_system: T1, Human CD98 ECD with C-terminal His-tag (human, UniProt P08195 105-529)
T1 construct: also called huCD98 ECD; recombinant human CD98 extracellular domain
T1 sequence: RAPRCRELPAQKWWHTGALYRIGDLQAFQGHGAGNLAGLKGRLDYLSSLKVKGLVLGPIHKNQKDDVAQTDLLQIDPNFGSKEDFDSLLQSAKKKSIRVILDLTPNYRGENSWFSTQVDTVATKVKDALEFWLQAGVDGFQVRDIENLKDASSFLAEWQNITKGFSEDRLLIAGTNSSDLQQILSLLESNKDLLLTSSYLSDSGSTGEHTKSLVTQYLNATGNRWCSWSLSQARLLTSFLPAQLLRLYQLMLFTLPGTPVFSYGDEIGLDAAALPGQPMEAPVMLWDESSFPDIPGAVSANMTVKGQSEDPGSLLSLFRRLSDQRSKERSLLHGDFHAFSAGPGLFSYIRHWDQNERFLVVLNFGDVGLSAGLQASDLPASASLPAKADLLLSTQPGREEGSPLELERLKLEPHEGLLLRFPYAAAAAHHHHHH
assay_remarks: SPR Biacore, anti-Fc capture of mAb, CD98 ECD analyte
Please respond with the number in s⁻¹ and leave the unit unwritten.

Check out these entries, answers already filled in.
| binder | endpoint_unit | koff |
| --- | --- | --- |
| Recombinant anti-CD98 chimeric antibody chAb8 (antibody, human IgG1, V domains shown) VH: EVQLVESGGGLVQPGRSLKLSCAASGFTFSDYAMAWVRQAPKKGLEWVASIIYDGRGTYYRDSVKGRFTISRDNAKSTLYLQMDSLRSEDTATYYCARQGDGTYYYWGYFDYWGQGVMVTVSS VL: DIVMTQSPSSLAVSAGETVTINCKSSQSLLSSGNQKNYLAWYQQKPGQSPKLLIYWASTRQSGVPDRFIGSGSGTDFTLTINSVQAEDLAIYYCQQYYDTPYTFGAGTKLELK | s⁻¹ | 0.00028 |
| Recombinant anti-CD98 chimeric antibody chAb12 (antibody, human IgG1, V domains shown) VH: EVQLVESGGGLVQPGRSLKLSCAASGFTFSDYAMAWVRQAPKKGLEWVASIIYDGRGTYYRDSVKGRFTISRDNAKSTLYLQMDSLRSEDTATYYCARQGDGTYYYWGSFDYWGQGVMVTVSS VL: DIVMTQSPSSLAVSAGETVTINCKSSQSLLSSGNQKNYLAWYQQKPGQSPKLLIYWASTRQSGVPDRFIGSGSGTDFTLTISSVQAEDLAIYHCQQYYDTPYTFGAGTKLELK | s⁻¹ | 6.3e-05 |

Let us examine a further case.
[ask] State the recorded koff for this entry: Recombinant anti-CD98 chimeric antibody chAb13 (antibody, human IgG1, V domains shown, also called chAbl 3) VH: QVQLKESGPGLVQPSQTLSLTCTVSGFSLSSYGVIWVRQPPGKGLEWMGIIWANGNTNYNSALKSRLSISRDTSKSQVYLKMNSLQTEDTATYYCARHYYDGTHYYGYFDYWGQGVMVTVSS VL: DTVMTQTPSSQAVSAGEKVTMSCKSSQSLLYSENKKKYLAWYQQKPGQSPKLLIYWASTRESGVPDRFIGSGSGTDFTLTISSVQAEDLAVYYCQQYYNFPYTFGAGTKLELK
[reply] 0.00016
